# Tested on: HT-1080 cells
# PROTOCOL TEXT: HT-1080 cell viability assay (ferroptosis induced by RSL3, Cell Titer-Glo)
# Type: cell-based
# CONDITION PARAMETERS: Homo sapiens, HT-1080, 20 h, ferroptosis inducer RSL3, 20 hours, ferroptosis inhibitory activity, Table 3
// values below are reported EC50

[
  {
    "COMPOUND": "CCNc1ccc2cc(NC3CC4(CC(N)C4)C3)ccc2c1 (stereo not shown)",
    "EC50": "0.1 to 100 nM"
  },
  {
    "COMPOUND": "NC1CC(Nc2ccc3nc(N4CCC(C(F)(F)F)CC4)ccc3c2)C1 (stereo not shown)",
    "EC50": "0.1 to 100 nM"
  },
  {
    "COMPOUND": "NC(=O)N1CCC(Nc2ccc3cc(N4CCC(C(F)(F)F)CC4)ccc3c2)CC1",
    "EC50": "0.1 to 100 nM"
  },
  {
    "COMPOUND": "Cc1nc(N2CCC(C(C)(C)O)CC2)ccc1NC1CC2(CC(N)C2)C1 (stereo not shown)",
    "EC50": "100 to 1000 nM"
  },
  {
    "COMPOUND": "Cc1nc(N2C[C@@H](C)O[C@@H](C)C2)ccc1NC1CCCC(N)CCC1 (stereo partly shown)",
    "EC50": "0.1 to 100 nM"
  },
  {
    "COMPOUND": "CC(=O)N1CCN(CCNc2ccc(N3CC(C)OC(C)C3)nc2C)CC1 (stereo not shown)",
    "EC50": "100 to 1000 nM"
  },
  {
    "COMPOUND": "Cc1nc(N2CC(C)OC(C)C2)ccc1NC1CCC2(CC1)CC(N)C2 (stereo not shown)",
    "EC50": "0.1 to 100 nM"
  },
  {
    "COMPOUND": "Cc1cc(N2CC(C)N(CC(F)(F)F)C(C)C2)ccc1NC1CC2(CC(N)C2)C1 (stereo not shown)",
    "EC50": "0.1 to 100 nM"
  },
  {
    "COMPOUND": "NC1CC2(C1)CC(Nc1ccc3cc(N4CCOC(C(F)(F)F)C4)ccc3c1)C2 (stereo not shown)",
    "EC50": "0.1 to 100 nM"
  },
  {
    "COMPOUND": "CN(CC(F)(F)F)c1ccc2cc(NC3CC(N)C3)ccc2c1 (stereo not shown)",
    "EC50": "0.1 to 100 nM"
  }
]
